Test: gradient 5% acetonitrile 3 min, to 50% in 2 min, to 85% in 15 min, held 3 min, 100 µL/min
Settings: column: Zorbax Extend-C18 2.1 x 50 mm; eluents: water / acetonitrile, 0.1% formic acid
// reported RP-LC retention time per item

{"columns": ["compound", "unit_tag", "RP-LC retention time"],
 "data": [
  ["CN(C(=O)CSc1nc(-c2ccccc2)no1)c1ccc(F)cc1", "s", 1020],
  ["Cc1ccc(-c2noc(C3CCCN3C(=O)c3ccc(CS(=O)(=O)c4ccccc4)cc3)n2)cc1 (stereo not drawn)", "s", 1010],
  ["COc1ccc(Cl)cc1NC(=O)N1CCc2c(c(-c3nnc(-c4ccc(F)cc4)o3)nn2C)C1", "s", 993]
]}

====

Experiment: gradient 5% acetonitrile 3 min, to 50% in 2 min, to 85% in 15 min, held 3 min, 100 µL/min
Conditions: column: Zorbax Extend-C18 2.1 x 50 mm; eluents: water / acetonitrile, 0.1% formic acid

{"columns": ["compound", "RP-LC retention time (s)"],
 "data": [
  ["CCc1ccc(C2=C(C)C(N3CCCN(C(=O)c4ccccc4)CC3)=NS2(=O)=O)cc1", 896],
  ["Cc1ccc(-c2nc(C)c(C(=O)NC3CC3)s2)cc1", 888],
  ["Cc1cc(C)cc(NC(=O)C2CCN(C(=O)c3ncn4c3COC(c3ccc(F)cc3)C4)CC2)c1 (centres undefined)", 816],
  ["O=S(=O)(c1ccc2c(c1)CCCC2)N1CCCn2nc(-c3cccnc3)cc2C1", 781]
]}

====

Test: gradient 5% acetonitrile 3 min, to 50% in 2 min, to 85% in 15 min, held 3 min, 100 µL/min
Conditions: column: Zorbax Extend-C18 2.1 x 50 mm; eluents: water / acetonitrile, 0.1% formic acid
readout_kind: RP-LC retention time (s)

{"columns": ["smiles_input", "numeric_result"],
 "data": [
  ["COc1ccc(C(=O)Nc2c(C(=O)Nc3ccccc3OC)oc3cccnc23)cc1", 783],
  ["CN(CC1CCOCC1)C(=O)Nc1ccc(C(F)(F)F)cc1", 812],
  ["COc1ccc(Cn2cc(S(=O)(=O)N3CCCCCC3)ccc2=O)cc1", 818],
  ["O=C(Cn1c(C(F)(F)F)nc2ccccc21)NCc1ccc2c(c1)OCCCO2", 804]
]}

====

Test: gradient 5% acetonitrile 3 min, to 50% in 2 min, to 85% in 15 min, held 3 min, 100 µL/min
Settings: column: Zorbax Extend-C18 2.1 x 50 mm; eluents: water / acetonitrile, 0.1% formic acid

{"columns": ["compound", "RP-LC retention time"],
 "data": [
  ["COc1ccc2c(c1)C1(CCN(C(=O)c3ccc(OC)c(OC)c3)C1)C(=O)N2 (stereo unspecified)", "674 s"],
  ["COc1cc(OC)cc(C(=O)N2CCN(c3cc(=O)n(C(C)C)c(=O)n3C(C)C)CC2)c1", "855 s"],
  ["Cc1ccn2cc(C(=O)NCc3cc(F)ccc3F)nc2c1", "657 s"],
  ["Cc1[nH]c(C(=O)N2CCC(CC(=O)N3CCCCCC3)CC2)c(C)c1C(=O)OC(C)C", "879 s"],
  ["O=C(NCc1cccc(F)c1)c1ccc(-c2ccsc2)nc1", "871 s"],
  ["COc1ccc(C(=O)N2CCC3(C2)C(=O)Nc2ccc(OC)cc23)cc1 (stereo unspecified)", "683 s"]
]}

====

Assay: gradient 5% acetonitrile 3 min, to 50% in 2 min, to 85% in 15 min, held 3 min, 100 µL/min
Settings: column: Zorbax Extend-C18 2.1 x 50 mm; eluents: water / acetonitrile, 0.1% formic acid
Assign class by RP-LC retention time: not lower than 700 s means YES; lower than 700 s means NO.

{"columns": ["compound", "class_name"],
 "data": [
  ["O=C(NCC1CCCO1)C1CCN(C(=O)C2Sc3ccccc3NC2=O)CC1 (stereo not drawn)", "NO"],
  ["COc1cc2c(cc1OC)C1C(C(=O)NCCCN3CCC(C)CC3)c3ccccc3C(=O)N1CC2 (stereo not drawn)", "NO"],
  ["N#Cc1ccccc1CN1CC[C@@H]2CN(Cc3cccnc3)[C@@H]2C1", "NO"],
  ["Cc1cccc(-n2c(=O)c3c(cc(C)n3C)n(CC(=O)Nc3ccccc3)c2=O)c1", "YES"],
  ["Nc1nnc(-c2ccc(Br)s2)o1", "NO"],
  ["O=C(Cn1nc2c(N3CCN(c4ccccc4)CC3)nccn2c1=O)Nc1cccc(Cl)c1", "YES"],
  ["CCOC(=O)CNC(=O)N1CCCC1c1ccccc1C (stereo not drawn)", "YES"],
  ["CCn1cc(-c2nc(C)c(C(=O)Nc3ccc(F)cc3F)s2)c2cccnc21", "YES"],
  ["CC(=O)N1CCCC1c1nc(C2CN(S(=O)(=O)C(C)C)C2)no1 (stereo not drawn)", "NO"],
  ["CCc1ccc(NS(=O)(=O)c2ccc3c(c2)C(=O)N(CC)c2ncccc2O3)cc1", "YES"],
  ["CCC(=O)N(C)CCc1noc(-c2ccc(C(=O)NCCN(CC)CC)cc2)n1", "NO"],
  ["Cc1cc(C(=O)N2CCCCCC2c2nnc(C)o2)on1 (stereo not drawn)", "NO"],
  ["CCc1nc(-c2csc(S(=O)(=O)N3CCCC(C(=O)Nc4ccc(C)cn4)C3)c2)no1 (stereo not drawn)", "YES"],
  ["CCN(CC)C(=O)c1ccc2c(c1)nnn2CCNC(=O)Nc1ccc(Br)cc1F", "YES"],
  ["C(=C\\c1cccs1)/c1nc(-c2cccc(-c3ccn[nH]3)c2)no1", "YES"],
  ["CCN(CC)S(=O)(=O)c1ccc2nc(N3CCN(c4ccccn4)CC3)cnc2c1", "NO"],
  ["O=C(CCc1c(-c2ccccc2)nc2ccccn12)NC1CCCCCC1", "NO"]
]}

====

# key: entry, value: RP-LC retention time
Assay: gradient 5% acetonitrile 3 min, to 50% in 2 min, to 85% in 15 min, held 3 min, 100 µL/min
Settings: column: Zorbax Extend-C18 2.1 x 50 mm; eluents: water / acetonitrile, 0.1% formic acid
readout_kind: RP-LC retention time

{"columns": ["smiles_input", "result"],
 "data": [
  ["CC1CCN(S(=O)(=O)c2ccc(-c3nnc(C(=O)N4CCOCC4)o3)cc2)CC1", "797 s"],
  ["CN(C)C(=O)c1cc2cccc3c2n1CCS3", "816 s"],
  ["CCOc1ccc(NC(=O)Cn2nc3c(Oc4ccccc4)nccn3c2=O)cc1", "822 s"],
  ["O=C(Cn1cccc1-c1nnc(C2CC2)o1)NCc1ccccc1Cl", "815 s"],
  ["CCS(=O)(=O)c1ccc2c(c1)N(Cc1nc(-c3ccccc3OC)no1)C(=O)CO2", "810 s"]
]}

====

Assay: gradient 5% acetonitrile 3 min, to 50% in 2 min, to 85% in 15 min, held 3 min, 100 µL/min
Details: column: Zorbax Extend-C18 2.1 x 50 mm; eluents: water / acetonitrile, 0.1% formic acid
Each record here notes measured RP-LC retention time.

{"columns": ["compound", "RP-LC retention time"],
 "data": [
  ["Cc1cccc(C(=O)Nc2nc(-c3ccc4c(c3)NC(=O)CO4)c(C)s2)c1", "918 s"],
  ["CC(C)(C)c1noc(-c2ccc(-n3cnc(C(=O)N4CCOCC4)c3)nc2)n1", "793 s"],
  ["Cc1ccc(NC(=O)Cn2nc3nc(N4CCCC(C)C4)ccn3c2=O)c(C)c1 (centres undefined)", "808 s"],
  ["COc1cc(C(=O)N2CC(=O)Nc3ccc(F)cc3C2c2ccccc2)cc(OC)c1OC (centres undefined)", "906 s"]
]}

====

Experiment: gradient 5% acetonitrile 3 min, to 50% in 2 min, to 85% in 15 min, held 3 min, 100 µL/min
Conditions: column: Zorbax Extend-C18 2.1 x 50 mm; eluents: water / acetonitrile, 0.1% formic acid
RP-LC retention time values for the molecules below.
readout_kind: RP-LC retention time (s)

{"columns": ["molecule", "readout_kind", "unit_tag", "numeric_result"],
 "data": [
  ["O=C(Nc1nc(-c2ccncc2)cs1)C1CCCCC1", "RP-LC retention time", "s", 588],
  ["Cc1cc(Cl)ccc1NC(=O)c1ncn2c1C(=O)N(C1CC1)C(C)(C(=O)NC1CCCC1)C2 (stereo unspecified)", "RP-LC retention time", "s", 879],
  ["COC(=O)c1ccc2c(=O)n(-c3ccccc3)c(N3CCN(C)CC3)nc2c1", "RP-LC retention time", "s", 624],
  ["Cc1ccc2nc(C(=O)N3CCN(c4cccc(C)c4C)CC3)cn2c1", "RP-LC retention time", "s", 804],
  ["C[C@@H]1C[C@H]2[C@@H]3C[C@H](F)C4=CC(=O)C(Cl)=C[C@]4(C)[C@@]3(F)[C@@H](O)C[C@]2(C)[C@@]1(O)C(=O)CO", "RP-LC retention time", "s", 847],
  ["Cc1ccc(N2N=C(C(=O)NCC3CCCO3)S(=O)(=O)c3cc(F)ccc32)cc1 (stereo unspecified)", "RP-LC retention time", "s", 877],
  ["Cc1ccccc1CNC(=O)c1nnc(-c2ccc(S(=O)(=O)N3CCC(C)CC3)cc2)o1", "RP-LC retention time", "s", 1100],
  ["CCCNC(=O)C1CCN(c2ccc(SCC(=O)NCc3cc(F)cc(F)c3)nn2)CC1", "RP-LC retention time", "s", 626],
  ["CCn1cc(-c2nc(CC(=O)NCc3cccc(Cl)c3)cs2)c2cccnc21", "RP-LC retention time", "s", 903],
  ["CCCCN1CCC(F)(c2nc(-c3ccccc3)no2)CC1", "RP-LC retention time", "s", 691],
  ["O=C(Nc1cccc(Br)c1)N1CCC(n2cnnc2C2CC2)C1 (stereo unspecified)", "RP-LC retention time", "s", 668]
]}

Reference source: the METLIN SMRT retention time set (Domingo-Almenara et al. 2019)
